Measured TGI by item
test system: NCI-H522 lung; assay: NCI tumour cell line growth inhibition, 48 h
The reply should contain only the number, in nM.

For orientation, consider the following solved cases.
> print(dat)
                               smiles.entry  experimental.system  output.unit  measured.value
1  COc1cc2c(cc1O)CCN(C)[C@H]2Cc1ccc(Oc2c(O)c(OC)cc3c2C[C@H]2c4c(c(OC)c(OC)c(OC)c4-3)CCN2C)cc1        NCI-H522 lung           nM           11200
2  COC(=O)c1cc(-c2ccc(OC)cc2)[nH]c1N/N=C/c1c(Cl)cccc1Cl        NCI-H522 lung           nM             491

Would you kindly look at the next entry?
Quick one: TGI of "CCN(CCCl)c1cccc(NC(=O)c2ccc(C(=O)Nc3cccc(CN(C)C)c3)cc2)c1" ?
34.2

====

system: SK-OV-3 ovarian; experiment: NCI tumour cell line growth inhibition, 48 h
Recorded endpoint: TGI

Recorded TGI, per entry:
> print(dat)
                                   compound  measured.value
1  COc1ccc(N2C(=O)C3c4[nH]c5ccccc5c4C4CCCCCCC4C3C2=O)cc1 (centres undefined)         33.2 µM
2    CC1=NN2C(=N)/C(=C/c3ccccc3)C(=O)N=C2S1        > 100 µM
3               CC(C)(C)C(=O)N1CCN(C=O)C1=S        > 100 µM

Param item = CC1=C(/C=C/C(C)=C/C=C/C(C)=C/C=C/C=C(C)/C=C/C=C(C)/C=C/C2=C(C)C(=O)C(O)CC2(C)C)C(C)(C)CC(O)C1=O (centres undefined) ; retrieve measured TGI.
> 100 µM

Item under review: "Cn1cc(C2=C(c3cn(C)c4cc(N)ccc34)C(=O)NC2=O)c2ccccc21" . Reported TGI?
> 25 µM

Item under review: "CC1=CC[C@](C)(O)[C@@]2(C)CC[C@H]3C(=C(C)C)C(=O)C[C@]3(C)C[C@H]12" . Reported TGI?
> 50 µM

Which TGI value belongs to "N#C/C(=C1/c2cc([N+](=O)[O-])ccc2-c2c1cc([N+](=O)[O-])cc2[N+](=O)[O-])N1CCCCC1" ?
> 100 µM

Given "CCCCCCCCCCCCCC(=O)NCC(OCC)OCC" , state its recorded TGI.
> 100 µM

Please give the measured TGI for this compound: CC1CN=C(c2ccc(-c3nc(-c4ccc(C5=NCC(C)N5)cc4)nc(N(C)C)n3)cc2)N1 (centres undefined)
5.54 µM

====

system: PC-3 prostate; test: NCI tumour cell line growth inhibition, 48 h
Each entry below lists one item and its recorded GI50 value.

> print(dat)
                               smiles.entry  recorded.endpoint  measured.value
1  COC(=O)c1cc(-c2ccc(OC)cc2)[nH]c1N/N=C/c1c(Cl)cccc1Cl               GI50          261 nM
2  O=C(N/N=C/c1ccc(Cl)cc1)c1[nH]c2ccc(Cl)cc2c1-c1ccccc1               GI50          200 nM
3  CC[C@H](Nc1nc(N)nc(C2CC2)c1C#N)c1nc2cccc(NCc3ccc(C(=O)NO)cc3)c2c(=O)n1-c1ccccc1               GI50         2110 nM
4  Cc1cc2nc(-c3c(N)ncc(C#N)c3-c3ccc(Cl)cc3)[nH]c2cc1C               GI50         6590 nM
5        N=c1ccc2nc3c(cc(N)c4ccccc43)oc-2c1               GI50          217 nM

Moving on to the next compound.
For "COc1ccc([C@@H](O)c2cc(-c3ncnc4cc(N5CCOCC5)ccc34)c(F)cc2Cl)nn1" , what is its reported GI50?
865 nM
